I'd appreciate it if you could supply viscosity values for the items below.
settings: 313.15 K; 101.33 kPa; Liquid; Capillary tube (Ostwald / Ubbelohde) method
Answers are plain numbers, in mPa·s.

>>> assay_value("CCn1cc[n+](C)c1.N#CN=C=[N-] [1-ethyl-3-methylimidazolium dicyanamide]")
9.8
>>> assay_value("CCCCn1cc[n+](C)c1.F[B-](F)(F)F [1-butyl-3-methylimidazolium tetrafluoroborate]")
52.81
>>> assay_value("CCn1cc[n+](C)c1.F[B-](F)(F)F [1-ethyl-3-methylimidazolium tetrafluoroborate]")
21.77

# compound `CCn1cc[n+](C)c1.O=S(=O)([N-]S(=O)(=O)C(F)(F)F)C(F)(F)F` ; its viscosity = 19.97

Reference for the values: the NIST ThermoML archive (doi:10.1021/je900878j)
